pKd: −log10 of the molar value.
Please find below pKd data on Retinoic acid receptor RXR-gamma (Mus musculus) compiled from the literature.
pKd vs 7: at or above is true (1), below is false (0).

input: Is pKd for CC(C)(C)c1cc(C(=O)Nc2ccc(C(=O)O)cc2)cc(C(C)(C)C)n1 at or above 7?
output: false (0)

input: For this compound, is measured pKd 7 or higher? CC(/C=C/CC1(c2cc(C(C)(C)C)cc3c2CCC3(C)C)CC1)=C\C(=O)O
output: true (1)

input: Please tell me: is the compound CC1(C)CCC(C)(C)c2cc(S(=O)(=O)c3ccc(C(=O)O)cc3)ccc21 at or over 7 in terms of pKd?
output: false (0)

input: Entry Cc1cc2c(cc1Sc1ccc(C(=O)O)cc1)C(C)(C)CCC2(C)C : is its pKd no less than 7?
output: false (0)

input: hey, is pKd for this one >= 7? CC(/C=C/[C@@H]1C[C@]1(C)c1ccc2c(c1)C(C)(C)CC(=O)N2C(C)C)=C\C(=O)O
output: true (1)

input: In plain terms: is recorded pKd at least 7 for CC(C)(C)c1cc(C(=O)Nc2cc(F)c(C(=O)O)c(F)c2)cc(C(C)(C)C)n1 ?
output: false (0)

input: Exam item: decide whether the reported pKd for CC(C)(C)c1cc(C(=O)Nc2cc(F)c(C(=O)O)c(F)c2)cc(C(C)(C)C)c1 is at least 7.
output: false (0)

input: Textbook exercise: given the entry CC(/C=C/C(F)=C(/C)c1cc2c(c(Br)c1OC(C)C)C(C)(C)CC=C2C(C)C)=C\C(=O)O , state whether its pKd is greater than or equal to 7.
output: false (0)

input: Could you tell me if the measured pKd of Cc1cc2c(cc1Sc1ncc(C(=O)O)s1)C(C)(C)CCC2(C)C reaches 7 or more?
output: false (0)

input: Does Cc1cc2c(cc1S(=O)(=O)c1ccc(C(=O)O)cc1)C(C)(C)CCC2(C)C have a reported pKd of at least 7?
output: false (0)

input: Exam item: decide whether the reported pKd for CC(/C=C/CC1(c2ccc3c(c2)C(C)(C)CCC3(C)C)CC1)=C\C(=O)O is at least 7.
output: true (1)

* * *

Study the reported Kd values for Retinoic acid receptor RXR-gamma (Mus musculus, UniProt P28705) given below; they originate from different publications.
Give just the numeric value; nM need not be written.

input: Report Kd, nothing else, for this compound: CCOc1c(\C(CC)=C(F)/C=C/C(C)=C/C(=O)O)cc2c(c1Cl)C(C)(C)CC=C2C(C)C
output: 61

input: Please supply the value of reported Kd for the item CC(/C=C/CC1(c2ccc3c(c2)C(C)(C)CCC3(C)C)CCCC1)=C\C(=O)O
output: 128

input: Identify measured Kd associated with CCOc1c(\C(=C(F)/C=C/C(C)=C/C(=O)O)C(C)C)cc2c(c1Br)C(C)(C)CC=C2C(C)C
output: 112

input: Give the measured Kd for CC(/C=C/CC1(c2cc3c(cc2C)C(C)(C)CCC3(C)C)CC1)=C\C(=O)O
output: 153

input: Annotate the compound Cc1cc2c(cc1Sc1ccc(C(=O)O)cn1)C(C)(C)CCC2(C)C with its measured Kd.
output: 73
